Below: a set of entries, each annotated with reported Mortality after 1 day.
System: smaller brown planthoppers (Loadelphax striatellus)
Test: Residual effect on smaller brown planthoppers (Test Example 11)
Assay type: in vivo
Conditions: 1000 fold dilute solution of 50 % emulsifiable concentrate; after 1 day
readout-name: Mortality after 1 day (%)

- molecule: "CN(C(=O)Oc1ccc(Cl)cc1)[S+]([O-])c1ccccc1 (centres unmarked)"
  unit-spec: "%"
  number: 96.7
- molecule: "Cc1ccc([S+]([O-])N(C)C(=O)Oc2ccc(C)c(C)c2)cc1 (centres unmarked)"
  unit-spec: "%"
  number: 85.0
- molecule: "Cc1ccc(OC(=O)N(C)[S+]([O-])c2ccccc2)cc1C (centres unmarked)"
  unit-spec: "%"
  number: 90.0
- molecule: "CNC(=O)Oc1ccc(C)c(C)c1 [Meobal, 3,4-dimethylphenyl-N-methylcarbamate, reference compound]"
  unit-spec: "%"
  number: 100
- molecule: "Cc1cc(C)cc(OC(=O)N(C)[S+]([O-])c2ccccc2)c1 (centres unmarked)"
  unit-spec: "%"
  number: 100
- molecule: "Cc1cccc(OC(=O)N(C)[S+]([O-])c2ccccc2)c1 (centres unmarked)"
  unit-spec: "%"
  number: 86.7
- molecule: "Cc1cccc(OC(=O)N(C)[S+]([O-])c2ccccc2)c1C (centres unmarked)"
  unit-spec: "%"
  number: 100
- molecule: "Cc1ccc(OC(=O)N(C)[S+]([O-])c2ccc([N+](=O)[O-])cc2)cc1C (centres unmarked)"
  unit-spec: "%"
  number: 100
- molecule: "Cc1ccc(OC(=O)N(C)[S+]([O-])c2ccc(Cl)cc2)cc1C (centres unmarked)"
  unit-spec: "%"
  number: 100
- molecule: "Cc1ccc([S+]([O-])N(C)C(=O)Oc2cccc(C)c2C)cc1 (centres unmarked)"
  unit-spec: "%"
  number: 100
- molecule: "Cc1ccc(OC(=O)N(C)[S+]([O-])c2ccccc2)c(C)c1 (centres unmarked)"
  unit-spec: "%"
  number: 100

Data credit: patent US3950374A
